# target-or-test-system: T1, human H7CR (B7-H7 counter-receptor) (human, UniProt Q96BF3 23-282)
# T1 construct: Used for H7CR on CHO.hH7CR transfectants, human T cells and tonsil tissue; also called B7-H7CR; CD28H
# T1 sequence: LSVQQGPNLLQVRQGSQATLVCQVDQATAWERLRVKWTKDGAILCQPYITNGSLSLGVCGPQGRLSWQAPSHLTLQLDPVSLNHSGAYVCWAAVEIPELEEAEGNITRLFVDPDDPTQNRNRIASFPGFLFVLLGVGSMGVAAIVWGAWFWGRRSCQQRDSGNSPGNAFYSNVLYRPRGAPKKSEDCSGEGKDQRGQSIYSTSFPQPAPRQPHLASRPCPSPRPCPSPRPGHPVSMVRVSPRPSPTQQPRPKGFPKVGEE
# assay-comment: binding to human H7CR as endogenously expressed on the surface of a cell

binder	binding result
4.5 humanized variant 6 (HC1-1 / LC2-3) (antibody, V domains shown, Variable domains only; detected with anti-hIg secondary; also called VH1A / VL2C) VH: QVQLQESGPGLVKPSQTLSLTCTVSGFSITTGGYYWSWIRQHPGKGLEWIGYIYTSGRTYYNPSLKSRVTISVDTSKNQFSLKLSSVTAADTAVYYCADMADKGGWFAYWGQGTLVTVSS VL: DIVMTQTPSSLPVTPGEPASISCLSSQSLFSSNTKRNYLNWYLQKPGQSPKLLIYHASTRLSGVPDRFSGSGSGTDFTLKISRVEAEDVGDYFCQQHYETPLTFGDGTRLEIK	binds
4.5 humanized variant 32 (HC2-3 / LC1-2) (antibody, V domains shown, Variable domains only; detected with anti-hIg secondary; also called VH2C / VL1B) VH: QIQLKESGPTLVKPTQTLTLTCTVSGFSITTGGYYWNWIRQPPGKKLEWMALIYTSGRTSYNPSLKSRLTITKDTSKNQVVLTMTNMDPVDTATYYCADMADKGGWFAYWGQGTLVTVSS VL: DIVMTQSPDSLAVSLGERATINCKSSQSLFSSNTKRNYLNWYQQKPGQPPKLLIYHASTRLSGVPDRFSGSGSGTDFTLTISSLQAEDVADYFCQQHYETPLTFGDGTRLEIK	binds
4.5 humanized variant 36 (HC2-3 / LC2-3) (antibody, V domains shown, Variable domains only; detected with anti-hIg secondary; also called VH2C / VL2C) VH: QIQLKESGPTLVKPTQTLTLTCTVSGFSITTGGYYWNWIRQPPGKKLEWMALIYTSGRTSYNPSLKSRLTITKDTSKNQVVLTMTNMDPVDTATYYCADMADKGGWFAYWGQGTLVTVSS VL: DIVMTQTPSSLPVTPGEPASISCLSSQSLFSSNTKRNYLNWYLQKPGQSPKLLIYHASTRLSGVPDRFSGSGSGTDFTLKISRVEAEDVGDYFCQQHYETPLTFGDGTRLEIK	binds
